The reported numbers originate from ChEMBL document CHEMBL3865815.

Would you kindly list IC50 for each of these compounds?
Assay: Antiproliferative activity against human PC3 cells after 72 hrs by MTT assay
Assay type: functional, cell-based
Settings: PC-3, 72 h
Give bare numbers, in nM.

// solved cases for IC50 follow
Would you mind telling me what IC50 value was observed for "O=S(=O)(c1ccc(-c2cnc(C3CC3)o2)cc1)N1CCCSc2ccccc21" ? 34

Please report the recorded IC50 for "O=[N+]([O-])c1ccc2c(c1)OCCCN2S(=O)(=O)c1ccc(-c2cnc(C3CC3)o2)cc1" . 72

Quick one: IC50 for "O=S1(=O)CCCN(S(=O)(=O)c2ccc(-c3cnc(C4CC4)o3)cc2)c2ccccc21" ? 5880

# get_value(readout='IC50', item= "CN1CCN(S(=O)(=O)c2ccc(-c3cnc(C4CC4)o3)cc2)c2ccccc2C1" ) 347

# IC50 lookup, item "O=S(=O)(c1ccc(-c2cnc(C3CC3)o2)cc1)N1CCCCc2ccccc21" 39

Dear colleague, could you please provide IC50 for the compounds listed below?
1. O=S(=O)(c1ccc(-c2cnc(C3CC3)o2)cc1)N1CCSc2ccccc21
2. O=S(=O)(c1ccc(-c2cnc(C3CC3)o2)cc1)N1CCCc2ccccc21
3. O=S(=O)(c1ccc(-c2cnc(C3CC3)o2)cc1)N1CCOc2ccccc21
4. Nc1ccc2c(c1)OCCCN2S(=O)(=O)c1ccc(-c2cnc(C3CC3)o2)cc1
5. COc1ccc2c(c1)N(S(=O)(=O)c1ccc(-c3cnc(C4CC4)o3)cc1)CCCO2

1: 49; 2: 38; 3: 77; 4: 33; 5: 14
